Where do these numbers come from? They come from patent US20030087963A1.

- System: functional uptake of dopamine (DA) (Rattus norvegicus)
- Construct: synaptosomes prepared from rat whole brain, hypothalamus, or corpora striata, respectively
- Sequence (P23977 whole entry): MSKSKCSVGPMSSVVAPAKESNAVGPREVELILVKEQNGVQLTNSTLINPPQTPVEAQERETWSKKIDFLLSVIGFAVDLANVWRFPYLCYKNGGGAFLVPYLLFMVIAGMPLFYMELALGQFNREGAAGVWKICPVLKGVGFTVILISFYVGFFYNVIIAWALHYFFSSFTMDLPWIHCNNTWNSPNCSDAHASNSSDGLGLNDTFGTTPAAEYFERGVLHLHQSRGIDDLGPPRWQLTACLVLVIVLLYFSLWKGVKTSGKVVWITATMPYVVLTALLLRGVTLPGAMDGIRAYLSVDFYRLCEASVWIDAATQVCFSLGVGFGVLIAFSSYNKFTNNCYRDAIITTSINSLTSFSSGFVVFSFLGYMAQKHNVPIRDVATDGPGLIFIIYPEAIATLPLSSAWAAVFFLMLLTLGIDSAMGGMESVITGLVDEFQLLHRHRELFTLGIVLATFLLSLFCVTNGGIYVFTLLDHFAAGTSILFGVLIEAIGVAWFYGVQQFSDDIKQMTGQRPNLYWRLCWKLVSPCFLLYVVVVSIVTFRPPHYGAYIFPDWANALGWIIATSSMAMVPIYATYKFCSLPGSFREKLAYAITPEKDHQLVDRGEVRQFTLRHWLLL
- Run Description: Inhibition of functional uptake of dopamine (DA) into synaptosomes from rat corpora striata
# maps each entry to its IC50

[
  {
    "Molecule": "CC(C)(O)C[C@@H](N)C1(c2ccc(Cl)cc2)CCC1 [2-(R)-OH-DDMS]",
    "System": "functional uptake of dopamine (DA) (Rattus norvegicus)",
    "Output Unit": "nM",
    "IC50": 18
  },
  {
    "Molecule": "CN[C@H](CC(C)(C)O)C1(c2ccc(Cl)cc2)CCC1 [2-(R)-OH-DMS]",
    "System": "functional uptake of dopamine (DA) (Rattus norvegicus)",
    "Output Unit": "nM",
    "IC50": 48
  },
  {
    "Molecule": "CN[C@@H](CC(C)(C)O)C1(c2ccc(Cl)cc2)CCC1 [2-(S)-OH-DMS]",
    "System": "functional uptake of dopamine (DA) (Rattus norvegicus)",
    "Output Unit": "nM",
    "IC50": 370
  },
  {
    "Molecule": "CC(C)(O)C[C@H](N)C1(c2ccc(Cl)cc2)CCC1 [2-(S)-OH-DDMS]",
    "System": "functional uptake of dopamine (DA) (Rattus norvegicus)",
    "Output Unit": "nM",
    "IC50": 59
  }
]
